Listed below: koff values for each entry.
# measurement target: T1, AFP158/HLA-A*02:01 complex (human)
# T1 construct: flowed as analyte in SPR
# experimental details: SPR, crude scFv captured, pMHC analyte;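 also: Peptide-MHC complex at several concentrations passed over captured scFv, association then buffer-driven dissociation, on- and off-rates fitted from the curves and KD estimated from them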
Your reply should be a number followed by the unit it is expressed in.

[in] Look at this binder and give its reported koff. AS170036 VL1VH1-VLH98P (scFv) scFv: QSALTQPRSVSGSPGQSVTISCAGTSSDVGSENYVSWYQQHPGKAPKLMIYQVNKRASGVPDRFSGSKSGNTASLTISGLQAEDEADYYCASYRSSDPNIVFGGGTKLTVLGGGGSGGGGSGGGGSEVQLVESGGGLVQPGGSLRLSCAASGFTFSSYAMSWVRQAPGKGLEWVSTINSGTGSPYYADSVKGRFTISRDNSKNTLYLQMNSLRAEDTAVYYCAKNFFDGSWFLGPPAMDYWGQGTLVTVSSHHHHHH
[out] 0.017 s⁻¹

[in] Item: AS170036 VL1VH1-VLH98Q (scFv) scFv: QSALTQPRSVSGSPGQSVTISCAGTSSDVGSENYVSWYQQHPGKAPKLMIYQVNKRASGVPDRFSGSKSGNTASLTISGLQAEDEADYYCASYRSSDQNIVFGGGTKLTVLGGGGSGGGGSGGGGSEVQLVESGGGLVQPGGSLRLSCAASGFTFSSYAMSWVRQAPGKGLEWVSTINSGTGSPYYADSVKGRFTISRDNSKNTLYLQMNSLRAEDTAVYYCAKNFFDGSWFLGPPAMDYWGQGTLVTVSSHHHHHH
[out] 0.016 s⁻¹

With those in mind, consider the next binder.
[in] Look at this binder and give its reported koff. AS170036 VL1VH1-VHG108D (scFv) scFv: QSALTQPRSVSGSPGQSVTISCAGTSSDVGSENYVSWYQQHPGKAPKLMIYQVNKRASGVPDRFSGSKSGNTASLTISGLQAEDEADYYCASYRSSDHNIVFGGGTKLTVLGGGGSGGGGSGGGGSEVQLVESGGGLVQPGGSLRLSCAASGFTFSSYAMSWVRQAPGKGLEWVSTINSGTGSPYYADSVKGRFTISRDNSKNTLYLQMNSLRAEDTAVYYCAKNFFDGSWFLDPPAMDYWGQGTLVTVSSHHHHHH
[out] 0.015 s⁻¹
